# maps each entry to its pKd
assay.system: T1, recombinant Plasmodium falciparum circumsporozoite protein (CSP) (Plasmodium falciparum, UniProt Q7K740 21-375)
T1 construct: also called recombinant CSP
T1 sequence (Q7K740 21-375 limits assumed): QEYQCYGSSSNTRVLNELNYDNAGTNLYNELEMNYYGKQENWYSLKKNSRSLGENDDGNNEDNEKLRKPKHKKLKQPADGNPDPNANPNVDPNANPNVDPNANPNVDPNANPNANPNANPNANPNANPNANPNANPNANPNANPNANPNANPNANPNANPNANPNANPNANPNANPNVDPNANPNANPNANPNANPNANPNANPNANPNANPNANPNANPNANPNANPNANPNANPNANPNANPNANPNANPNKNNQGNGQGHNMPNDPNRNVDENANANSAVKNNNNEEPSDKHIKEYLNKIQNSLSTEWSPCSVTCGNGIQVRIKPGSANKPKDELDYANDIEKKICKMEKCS
measurement.notes: binding affinity column of the in vivo table (SPR, CSP)
Scale explanation: pKd corresponds to minus log10 of a concentration expressed in moles per litre.

See these solved cases before continuing.
binder="AB001533 (antibody, V domains shown) VH: QVQLVESGGGVVQPGRSLRLSCAASGFTFNSYGMHWVRQAPGKGLEWVALISFDGTNKFYADSVKGRFTISRDNSKNTLYLQMNSLRAEDTALYHCATDSLFYYDFHLFDYWGQGTLVTVSS VL: DIVLTQTPLSSPVTLGQPASISCRSSQSLVYSDGNTYLNWLQQRPGQPPRLLIYKISNRFSGVPDRFSGSGAGTDFTLKISRVEAEDVGVYYCMQATQLYTFGQGTKLEIK" measurement_kind=pKd numeric_result=9.60
binder="AB001458 (antibody, V domains shown) VH: EVQLVESGGGLVQPGRSLRLSCTASGFTFGDYAMSWFRQAPGKGLEWVSFIRSKTYGGSTEYAASVKGRFTISRDDSKSIAYLQMHSLKTEDTAFYYCTRVSAAAGVGDYWGQGTLVTVSS VL: EIVMTQSPATLSVSPGERATLSCRASQSVGSNLAWYQQKPGQAPRLLIYGASTRATGLPARFSGSGSATEFTLTISSLQSEDFAVYYCQQYNTWWTFGQGTKVEIK" measurement_kind=pKd numeric_result=9.04

Could you now consider this next binder?
Challenge: Endpoint output: pKd of AB-000394 (antibody, V domains shown) VH: QAQPVESGGGVVQPGKSLRLSCAASGFTFRNFGMHWVRQAPGKGLEWVAVIWHDGSNQFYADSVEGRFTISRDNSKNTLYLQMDSLRVEDTAMYYCARDRGYSGSWGYFDHWGQGTLVTVSS VL: EIVLTQSPATLSLSPGERATLSCRASQSISDYLAWYQQKPGQAPRLLIYDASFRATGIPARFSGSGSGTDFTLTISSLEPEDFAVYYCQQRSIGFTFGPGTKVDIK . Value?
Response given: 9.98
